These entries and their values trace back to ChEMBL document CHEMBL1139816.

Molecular target: Melanocortin receptor 4 (Homo sapiens)
Sequence (P32245 whole entry): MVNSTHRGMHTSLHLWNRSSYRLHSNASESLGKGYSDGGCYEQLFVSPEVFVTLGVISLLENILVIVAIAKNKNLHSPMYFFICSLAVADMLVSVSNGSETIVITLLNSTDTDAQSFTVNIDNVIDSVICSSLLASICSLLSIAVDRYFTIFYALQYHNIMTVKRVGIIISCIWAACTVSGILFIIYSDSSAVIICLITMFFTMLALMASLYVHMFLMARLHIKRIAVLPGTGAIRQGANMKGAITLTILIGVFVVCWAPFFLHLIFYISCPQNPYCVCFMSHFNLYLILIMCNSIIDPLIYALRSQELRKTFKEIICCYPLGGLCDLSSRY
Test: […] at human MC4R assessed as stimulation of cAMP production
quantityMeasured: pEC50
By convention, pEC50 is the negative base-10 log of a molar concentration.

• CN1CCN[C@@H](C(=O)N[C@@H](Cc2ccc(F)cc2)C(=O)N2CCC(C(=O)NC(C)(C)C)(C3C=CC(=O)CC3)CC2)C1 (stereo partly specified) = 5.75
• N#CCC1(C2CCCCC2)CCN(C(=O)[C@H](Cc2ccc(Cl)cc2)NC(=O)[C@H]2Cc3ccccc3CN2)CC1 = 6.72
• CC1CCC(C2(C(=O)NC(C)(C)C)CCN(C(=O)[C@H](Cc3ccc(F)cc3)NC(=O)[C@H]3CN(C)CCN3)CC2)CC1 (stereo partly specified) = 8.00
• CN1CCN[C@@H](C(=O)N[C@@H](Cc2ccc(F)cc2)C(=O)N2CCC(CC3CC3)(C(=O)NC(C)(C)C)CC2)C1 = 5.66
• CN1CCN[C@@H](C(=O)N[C@@H](Cc2ccc(F)cc2)C(=O)N2CCC(C(=O)NC(C)(C)C)(C3CCCCC3)CC2)C1 = 8.19
• Cn1nnnc1CC1(Cc2ccccc2)CCN(C(=O)[C@H](Cc2ccc(Cl)cc2)NC(=O)[C@H]2Cc3ccccc3CN2)CC1 = 6.95
• CN1CCN[C@@H](C(=O)N[C@@H](Cc2ccc(F)cc2)C(=O)N2CCC(C(=O)NC(C)(C)C)(C3C=CCCC3)CC2)C1 (stereo partly specified) = 7.07
• CN1CCN[C@@H](C(=O)N[C@@H](Cc2ccc(F)cc2)C(=O)N2CCC(C(=O)NC(C)(C)C)(C3(C)CCCCC3)CC2)C1 = 7.24

Query: Entry "CCCCC1(CC#N)CCN(C(=O)[C@H](Cc2ccc(Cl)cc2)NC(=O)[C@H]2Cc3ccccc3CN2)CC1" , system Melanocortin receptor 4 (Homo sapiens): what pEC50 was measured?
Result: 6.55

Query: Entry "CN1CCN[C@@H](C(=O)N[C@@H](Cc2ccc(F)cc2)C(=O)N2CCC(CC3CCC3)(C(=O)NC(C)(C)C)CC2)C1" , system Melanocortin receptor 4 (Homo sapiens): what pEC50 was measured?
Result: 6.25
